Just for reference, ChEMBL document CHEMBL5352409 is where these values come from.

Tested on: HCT-116
Assay: cells
Conditions: Homo sapiens
pIC50: −log10 of the molar value.
The reader will find reported pIC50 values listed item by item below.

STRUCTURE AS SMILES: O=C(Cc1ccccc1)Nc1nnc(CCc2ccc(C(=O)NCCN3CCCC3)cc2)s1
TARGET ENTITY: HCT-116
RESULT MODIFIER: <
pIC50: 5.00
//
STRUCTURE AS SMILES: CCCNC(=O)c1ccc(CCc2nnc(NC(=O)Cc3ccccc3)s2)cc1
TARGET ENTITY: HCT-116
RESULT MODIFIER: <
pIC50: 5.00
//
STRUCTURE AS SMILES: O=C(Cc1ccccc1)Nc1cccc(CN2CCN(c3nnc(NC(=O)Cc4ccccc4)s3)CC2)c1
TARGET ENTITY: HCT-116
RESULT MODIFIER: <
pIC50: 5.00
//
STRUCTURE AS SMILES: CCN(CC)CCNC(=O)c1ccc(CCc2nnc(NC(=O)Cc3ccccc3)s2)cc1
TARGET ENTITY: HCT-116
RESULT MODIFIER: <
pIC50: 5.00
//
STRUCTURE AS SMILES: CC(C)N1CCC(CNC(=O)c2cccc(COCCC3CCN(c4nnc(NC(=O)Cc5ccccc5)s4)CC3)c2)CC1
TARGET ENTITY: HCT-116
RESULT MODIFIER: <
pIC50: 5.00
//
STRUCTURE AS SMILES: CN1CCN(c2cccc(NC(=O)c3ccc(COCCC4CCN(c5nnc(NC(=O)Cc6ccccc6)s5)CC4)cc3)c2)CC1
TARGET ENTITY: HCT-116
RESULT MODIFIER: =
pIC50: 6.59
//
STRUCTURE AS SMILES: Cc1ccccc1CN1CCC(CNC(=O)c2ccc(COCCC3CCN(c4nnc(NC(=O)Cc5ccccc5)s4)CC3)cc2)CC1
TARGET ENTITY: HCT-116
RESULT MODIFIER: =
pIC50: 6.09
//
STRUCTURE AS SMILES: O=C(Cc1ccccc1)Nc1nnc(CCc2ccc(C(=O)N3CCCCC3)cc2)s1
TARGET ENTITY: HCT-116
RESULT MODIFIER: <
pIC50: 5.00
//
STRUCTURE AS SMILES: O=C(Cc1ccccc1)Nc1nnc(N2CCN(Cc3ccc(C(=O)NCCNc4ccccc4)cc3)CC2)s1
TARGET ENTITY: HCT-116
RESULT MODIFIER: =
pIC50: 5.96
//
STRUCTURE AS SMILES: CN1CCN(c2cccc(C(=O)Nc3ccc(CN4CCN(c5nnc(NC(=O)Cc6ccccc6)s5)CC4)cc3)c2)CC1
TARGET ENTITY: HCT-116
RESULT MODIFIER: =
pIC50: 5.90
